The entries below come with measured pIC50 values attached.
# tested.system: PI3K p110α/p85 (Homo sapiens, UniProt P42336)
# Sequence (P42336 whole entry): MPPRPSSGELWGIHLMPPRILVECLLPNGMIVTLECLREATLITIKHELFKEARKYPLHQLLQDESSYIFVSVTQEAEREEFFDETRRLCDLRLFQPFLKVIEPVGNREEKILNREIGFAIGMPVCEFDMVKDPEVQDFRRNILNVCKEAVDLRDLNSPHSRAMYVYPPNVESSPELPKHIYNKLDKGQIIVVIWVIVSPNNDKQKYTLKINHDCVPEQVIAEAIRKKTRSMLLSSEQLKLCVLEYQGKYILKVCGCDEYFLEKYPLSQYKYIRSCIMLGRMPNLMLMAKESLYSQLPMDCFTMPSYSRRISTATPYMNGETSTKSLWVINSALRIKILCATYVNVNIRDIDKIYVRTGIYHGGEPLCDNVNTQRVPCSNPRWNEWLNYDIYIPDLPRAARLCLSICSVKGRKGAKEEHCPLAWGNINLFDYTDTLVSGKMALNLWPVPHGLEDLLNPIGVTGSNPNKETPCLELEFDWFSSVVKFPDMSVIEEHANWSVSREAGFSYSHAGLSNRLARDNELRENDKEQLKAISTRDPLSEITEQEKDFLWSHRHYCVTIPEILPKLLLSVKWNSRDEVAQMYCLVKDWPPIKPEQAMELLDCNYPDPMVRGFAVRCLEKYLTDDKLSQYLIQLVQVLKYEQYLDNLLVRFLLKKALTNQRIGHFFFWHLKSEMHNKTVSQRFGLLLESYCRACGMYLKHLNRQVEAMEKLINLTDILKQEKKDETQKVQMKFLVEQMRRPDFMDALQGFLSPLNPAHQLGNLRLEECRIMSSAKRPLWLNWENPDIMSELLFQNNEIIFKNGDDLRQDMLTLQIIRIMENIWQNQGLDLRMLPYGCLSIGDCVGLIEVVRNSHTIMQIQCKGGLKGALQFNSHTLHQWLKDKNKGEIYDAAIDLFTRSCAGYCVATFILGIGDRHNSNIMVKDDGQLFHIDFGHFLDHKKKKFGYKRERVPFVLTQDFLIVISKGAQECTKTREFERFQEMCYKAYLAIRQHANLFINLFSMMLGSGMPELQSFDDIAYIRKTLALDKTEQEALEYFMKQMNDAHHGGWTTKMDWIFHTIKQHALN
# Sequence (P27986 whole entry partner): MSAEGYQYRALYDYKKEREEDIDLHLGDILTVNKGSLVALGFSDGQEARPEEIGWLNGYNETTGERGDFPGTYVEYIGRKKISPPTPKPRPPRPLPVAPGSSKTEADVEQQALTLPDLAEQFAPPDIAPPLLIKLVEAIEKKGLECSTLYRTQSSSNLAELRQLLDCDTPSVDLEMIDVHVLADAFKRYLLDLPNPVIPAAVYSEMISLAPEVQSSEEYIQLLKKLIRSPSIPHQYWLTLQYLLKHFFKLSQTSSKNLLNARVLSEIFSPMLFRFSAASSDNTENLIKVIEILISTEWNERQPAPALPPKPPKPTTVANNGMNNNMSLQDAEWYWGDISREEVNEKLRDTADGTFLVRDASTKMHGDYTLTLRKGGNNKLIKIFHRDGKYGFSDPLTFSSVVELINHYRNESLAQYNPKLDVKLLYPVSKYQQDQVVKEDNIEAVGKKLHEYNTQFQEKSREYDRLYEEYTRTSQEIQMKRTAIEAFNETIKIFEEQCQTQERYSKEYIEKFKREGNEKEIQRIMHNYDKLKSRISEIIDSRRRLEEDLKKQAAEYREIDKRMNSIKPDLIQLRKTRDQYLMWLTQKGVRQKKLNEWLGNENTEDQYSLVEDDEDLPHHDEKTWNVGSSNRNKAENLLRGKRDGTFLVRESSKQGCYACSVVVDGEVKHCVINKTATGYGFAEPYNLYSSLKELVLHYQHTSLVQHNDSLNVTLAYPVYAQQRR
# test.protocol: PI3K assay ([γ33P]ATP, PtdIns/PtdSer coated plates)
# run.parameters: 2 μM ATP, 1 hour at RT; read-out: IC50 (PI3Kα)
pIC50: −log10 of the molar value.

Record excerpt, results attached:
{"columns": ["compound", "pIC50"],
 "data": [
  ["CC1CCC(n2cnc3c(-c4cccc(O)c4)nc(N4CCOCC4)nc32)CC1 (centres unmarked) [Compound 61]", "> 6.00"],
  ["CCc1nc2c(-c3cccc(O)c3)nc(N3CCOCC3)nc2n1C(C)CC (centres unmarked) [Compound 112]", "> 6.00"],
  ["Nc1cccc(Cn2cnc3c(-c4cccc(O)c4)nc(N4CCOCC4)nc32)c1 [Compound 41]", "> 6.00"],
  ["CC(C)(C)OC(=O)N1CCC(n2cnc3c(-c4cccc(O)c4)nc(N4CCOCC4)nc32)CC1 [Compound 86]", "> 6.00"],
  ["C=CCCn1cnc2c(-c3cccc(O)c3)nc(N3CCOCC3)nc21 [Compound 22]", "> 6.00"]
]}

Summary for this compound, Oc1cccc(-c2nc(N3CCOCC3)nc3c2ncn3Cc2cccc(OC(F)(F)F)c2)c1 [Compound 12] : pIC50 is < 5.30

Summary for this compound, Oc1ccc(-c2nc(N3CCOCC3)nc3c2ncn3Cc2ccccc2)cc1 [Compound 5] : pIC50 is < 5.30

Summary for this compound, CCC(C)n1c(Br)nc2c(-c3cccc(O)c3)nc(N3CCOCC3)nc21 (centres unmarked) [Compound 114] : pIC50 is > 6.00
